For each of the molecules below, state its log10 vapour pressure (mmHg).
Give the figure by itself; no unit, no explanation.

Fill in log10 vapour pressure (mmHg) for record CCN(CC)C(=O)SCc1ccccc1Cl -4.03

Fill in log10 vapour pressure (mmHg) for record C[C@@H]1[C@@H](c2ccc(Cl)cc2)SC(=O)N1C(=O)NC1CCCCC1 (single isomer, unassigned) -7.59

Fill in log10 vapour pressure (mmHg) for record Cc1cccc(Nc2ccccc2)c1 -3.83

Fill in log10 vapour pressure (mmHg) for record CC(F)F 3.66

Fill in log10 vapour pressure (mmHg) for record N#CCCl 1.18

Fill in log10 vapour pressure (mmHg) for record C[Si](C)(C)N[Si](C)(C)C 1.14

Fill in log10 vapour pressure (mmHg) for record CC(C)(C)C 3.11

Fill in log10 vapour pressure (mmHg) for record CC=C(C)CCC 1.7
